B1: HDV Ribozyme (parent)
chain: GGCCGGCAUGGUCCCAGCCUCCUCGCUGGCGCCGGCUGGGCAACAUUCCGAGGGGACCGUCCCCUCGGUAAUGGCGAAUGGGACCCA

- Variants of: B1
- PROTOCOL_NOTES: self-cleavage, relative activity (ratio to wild type); higher = more cleavage; co-transcriptional
Property: self-cleavage; scope: individual variants

Here's what some known entries look like.
G59C C86G ... 1.06
G1C C4G ... 0
C57U C86G ... 0.862
C18U G53U ... 0.918
C36A A78C ... 0.155
A16G ... 1.07

Per the records, this variant ( G2A C64G ) has self-cleavage equal to 0.0923

Consider U9C U47C . Its measured self-cleavage is 0.969

self-cleavage recorded for this variant, U9A G11C , is 0.609

Reported self-cleavage ( C44G U60G ) = 0.76

Reported self-cleavage for G17U C86A was 0.369
